These data points were gathered from patent US20140113872A1.

target_desc: T1, human urotensin II receptor (UT) (human, UniProt Q9UKP6 1-389)
T1 construct: whole, on cells; also called hUT; hGPR14
T1 sequence (looked up): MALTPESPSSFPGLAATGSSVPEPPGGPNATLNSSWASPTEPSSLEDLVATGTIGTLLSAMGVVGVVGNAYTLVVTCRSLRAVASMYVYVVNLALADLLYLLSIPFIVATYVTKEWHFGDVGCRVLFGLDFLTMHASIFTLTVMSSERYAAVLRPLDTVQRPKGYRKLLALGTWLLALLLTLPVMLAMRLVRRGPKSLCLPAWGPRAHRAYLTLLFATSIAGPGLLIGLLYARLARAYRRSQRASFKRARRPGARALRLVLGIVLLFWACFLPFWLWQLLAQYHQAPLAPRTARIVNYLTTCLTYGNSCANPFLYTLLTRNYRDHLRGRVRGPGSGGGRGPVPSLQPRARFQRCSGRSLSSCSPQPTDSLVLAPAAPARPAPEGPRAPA
protocol_description: displacement of 0.2 nM 125I-hUII from CHO cells expressing human UT
Numbered stars: 1 amine (or outer) side, 2 acyl side, 3 side chain; on linkers, the order of the positions; unused ones are H or OH. Bridge positions count the residues as written; N and C are the ends. Square brackets hold non-standard residues; d marks the D form. Ends that are not written are not given here. dTiq = D-1,2,3,4-tetrahydroisoquinoline-1-carboxylic acid, O=C([C@H]1c2ccccc2CCN1[*:1])[*:2]; Phe(4-I) = N[C@@H](Cc1ccc(I)cc1)C(=O)O; 1Nal = N[C@@H](Cc1cccc2ccccc12)C(=O)O; d1Nal = N[C@H](Cc1cccc2ccccc12)C(=O)O; Tiq1c(1S) = O=C(O)[C@H]1NCCc2ccccc21; dPhg = N[C@@H](C(=O)O)c1ccccc1; dTle = CC(C)(C)[C@@H](N)C(=O)O; Phg = N[C@H](C(=O)O)c1ccccc1; dAia = not defined here
Mark each entry class 1 if its IC50 sits below 50 nM, and class 0 for all others.

Field: below-cutoff. Rule: recorded IC50 strictly less than 50 nM. Subject: H-ACF[Tiq1c(1S)]KYCV-OH (disulfide 2-7, H-Ala-Cys-Phe-Tiq-Lys-Tyr-Cys-Val-OH; also called compound 16) [[Tiq^4]URP]
class 1

Now this one: ACF[dTiq]KYCV (disulfide 2-7, also called compound 17) [[D-Tiq^4]URP]
class 1

Now this one: ACF[dTle]KYCV-OH (disulfide 2-7, also called compound 8) [[D-Tbg^4]URP]
class 0

Now this one: H-ACF[Phg]KYCV-OH (disulfide 2-7, H-Ala-Cys-Phe-Phg-Lys-Tyr-Cys-Val-OH; also called compound 14) [[Phg^4]URP]
class 1

Now this one: H-ACF[Phe(4-I)]KYCV-OH (disulfide 2-7, H-Ala-Cys-Phe-Phe(I)-Lys-Tyr-Cys-Val-OH; also called compound 5; [para-iodo-Phe^4]URP) [[Phe(I)^4]URP]
class 0

Now this one: H-ACF[1Nal]KYCV-OH (disulfide 2-7, H-Ala-Cys-Phe-Nal-Lys-Tyr-Cys-Val-OH; also called compound 3) [[1-Nal^4]URP]
class 1

Now this one: ACF[dAia]KYCV (disulfide 2-7; not fully specified (bridges); reading uncertain; also: D-Aia indole ring bonded to Lys5 backbone N, also called compound 13) [[D-Aia^4]URP]
class 0

Now this one: H-ACF[dPhg]KYCV-OH (disulfide 2-7, also called compound 15) [[D-Phg^4]URP]
class 1

Now this one: ACF[d1Nal]KYCV (disulfide 2-7, also called compound 4; [D-Nal^4]URP) [[D-1-Nal^4]URP]
class 1
